Each entry below lists one item and its recorded IC50 value.
test-system: S. aureus-derived recombinant SrtA (Staphylococcus aureus, UniProt Q2FV99)
Sequence (Q2FV99 whole entry): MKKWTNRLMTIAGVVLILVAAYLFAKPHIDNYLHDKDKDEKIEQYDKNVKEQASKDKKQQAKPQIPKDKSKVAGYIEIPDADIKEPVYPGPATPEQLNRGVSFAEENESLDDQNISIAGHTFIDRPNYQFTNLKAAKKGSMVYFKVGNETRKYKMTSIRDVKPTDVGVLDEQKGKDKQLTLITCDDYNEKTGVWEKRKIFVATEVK
assay: biochemical
Positions of bridges follow the written chain, without caps; N, C: chain ends. Non-standard residues stand in square brackets, D forms with d. Residues, ends and D or L forms follow the SMILES beside them. NMeF = CN[C@@H](Cc1ccccc1)C(=O)O
A complete answer gives the number followed by the unit.

Use the examples below as a reference point.
>  <compound>
CC(=O)N[C@H](C(=O)N[C@@H](C(=O)N1CCC[C@H]1C(=O)N[C@@H](Cc1ccc(O)cc1)C(=O)N(C)[C@@H](Cc1ccccc1)C(=O)N[C@@H](C)C(=O)O)C(C)C)[C@@H](C)O [Compound 4, FJ120DPB] (Ac-T[dV]PY[NMeF]A-OH)

>  <IC50>
77 µM

$$$$
>  <compound>
CC(C)C[C@@H]1NC(=O)[C@@H]2CCCN2C(=O)[C@H](Cc2ccc(O)cc2)NC(=O)[C@H](Cc2ccccc2)N(C)C(=O)[C@H](C)NC1=O [Compound 1, JG002CPA] (cyclo(A[NMeF]YPL))

>  <IC50>
70 µM

$$$$
>  <compound>
COc1ccc2cc3[n+](cc2c1OC)CCc1cc2c(cc1-3)OCO2 [Berberine chloride]

>  <IC50>
104 µM

$$$$
>  <compound>
CC(C)[C@@H]1NC(=O)[C@@H]2CCCN2C(=O)[C@H](Cc2ccc(O)cc2)NC(=O)[C@H](Cc2ccccc2)N(C)C(=O)[C@H](C)NC1=O [Compound 2, JG002CPB] (cyclo(A[NMeF]YPV))

>  <IC50>
53.1 µM

$$$$

Now look at this one.
Provide only the value of recorded IC50 for CC(=O)N[C@@H]1C(=O)N[C@H](C(C)C)C(=O)N2CCC[C@H]2C(=O)N[C@@H](Cc2ccc(O)cc2)C(=O)N(C)[C@@H](Cc2ccccc2)C(=O)N[C@@H](C)C(=O)O[C@@H]1C [Compound 3, FJ120DPA] (Ac-T[dV]PY[NMeF]A; ester 1-C)
132 µM

###

Each entry below lists one item and its recorded pIC50 value.
test-system: recombinant ICL from C. albicans (Candida albicans, UniProt Q9P8Q7)
Sequence (Q9P8Q7 whole entry): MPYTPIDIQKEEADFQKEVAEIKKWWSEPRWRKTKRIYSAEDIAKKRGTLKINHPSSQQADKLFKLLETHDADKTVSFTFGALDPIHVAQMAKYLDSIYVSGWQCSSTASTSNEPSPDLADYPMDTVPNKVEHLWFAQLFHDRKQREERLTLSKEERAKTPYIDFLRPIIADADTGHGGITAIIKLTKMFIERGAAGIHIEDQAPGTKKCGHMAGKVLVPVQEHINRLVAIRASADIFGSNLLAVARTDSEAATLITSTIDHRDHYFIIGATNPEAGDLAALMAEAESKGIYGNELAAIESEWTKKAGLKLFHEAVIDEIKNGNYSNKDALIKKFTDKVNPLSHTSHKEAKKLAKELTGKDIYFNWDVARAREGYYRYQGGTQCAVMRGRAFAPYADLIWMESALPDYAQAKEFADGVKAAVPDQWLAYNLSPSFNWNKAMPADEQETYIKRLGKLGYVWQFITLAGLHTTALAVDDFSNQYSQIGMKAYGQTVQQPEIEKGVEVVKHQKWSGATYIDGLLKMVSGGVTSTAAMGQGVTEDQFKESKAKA
assay: ICL inhibition assay
condition-notes: 37 °C, 30 min
Non-standard residues stand in square brackets, D forms with d. Residues, ends and D or L forms follow the SMILES beside them. NMeF = CN[C@@H](Cc1ccccc1)C(=O)O
When answering, recall that pIC50 equals minus log10 of the concentration in mol/L, and write that number alone.

Provide only the value of recorded pIC50 for O=C(O)CC[N+](=O)[O-]
4.73

Provide only the value of recorded pIC50 for CC(C)[C@@H]1NC(=O)[C@@H]2CCCN2C(=O)[C@H](Cc2ccc(O)cc2)NC(=O)[C@H](Cc2ccccc2)N(C)C(=O)[C@H](C)NC1=O [Compound 2, JG002CPB] (cyclo(A[NMeF]YPV))
3.93

This collection of values is drawn from paper PMC6780696.
